# study-target: Estrogen receptor (Homo sapiens, UniProt P03372)
# Sequence (P03372 whole entry): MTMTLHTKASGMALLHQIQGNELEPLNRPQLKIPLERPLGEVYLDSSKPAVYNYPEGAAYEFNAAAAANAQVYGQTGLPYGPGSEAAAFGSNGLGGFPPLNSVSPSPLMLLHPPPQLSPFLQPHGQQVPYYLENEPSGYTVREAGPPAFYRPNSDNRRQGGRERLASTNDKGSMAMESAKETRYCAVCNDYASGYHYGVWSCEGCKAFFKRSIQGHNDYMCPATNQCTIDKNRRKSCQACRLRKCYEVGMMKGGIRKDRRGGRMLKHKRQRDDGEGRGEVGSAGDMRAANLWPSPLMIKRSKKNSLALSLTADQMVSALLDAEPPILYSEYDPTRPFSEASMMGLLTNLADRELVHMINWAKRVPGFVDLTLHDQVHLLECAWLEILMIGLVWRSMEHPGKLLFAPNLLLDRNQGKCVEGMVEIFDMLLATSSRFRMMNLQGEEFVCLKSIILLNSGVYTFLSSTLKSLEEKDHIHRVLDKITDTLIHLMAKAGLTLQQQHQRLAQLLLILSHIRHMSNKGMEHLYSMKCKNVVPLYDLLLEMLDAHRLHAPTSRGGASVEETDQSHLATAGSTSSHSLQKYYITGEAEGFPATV
pKi: −log10 of the molar value.
measured-attribute: pKi

Enquiry: Input "O=C(c1ccc(OCCN2CCCCC2)cc1)c1c(-c2ccccc2)sc2ccccc12" , output reported pKi.
Return: < 5.00

---

# Species: Canis lupus familiaris
# protocol: Binding affinity to hound bone powder assessed as reduction in bound compound level at 50 uM after 1 hr by NMR spectroscopic analysis relative to alendronate
# Design: scale not given: the % may be the effect or the level left
measured-attribute: Activity
Give the figure together with its unit, number first.

| compound | measured-attribute | value-observed |
| --- | --- | --- |
| COc1ccc2c(C(=O)c3ccc(OCCN4CCCCC4)cc3)c(-c3ccc(O)cc3)sc2c1 | Activity | 21% |
| O=C(c1ccc(OCCN2CCCCC2)cc1)c1c(-c2ccccc2)sc2ccccc12 | Activity | -132% |
| O=C(c1ccc(OCCN2CCCCC2)cc1)c1c(-c2ccc(O)cc2)sc2cc(O)ccc12 | Activity | 54.2% |

Enquiry: State its Activity: "O=C(c1ccc(O)cc1)c1c(-c2ccc(O)cc2)sc2cc(O)ccc12"
Return: 26.4%

Enquiry: Look up and state reported Activity for "COc1ccc(Nc2nc(NCc3ccco3)nc(N/N=C(\C)c3ccc(NC(C)=O)cc3)n2)cc1"
Return: 0.3%

Enquiry: Specify reported Activity for the compound shown: "C[C@]12CC[C@@H]3c4ccc(O)cc4CC[C@H]3[C@@H]1CC[C@@H]2O"
Return: 5.3%

Enquiry: Give the measured Activity for Oc1ccc(-c2cc3ccc(O)cc3s2)cc1 [RALOXIFENE CORE]
Return: 42.8%

---

# Activity per record follows
# Organism: Canis lupus familiaris
# protocol: Binding affinity to hound bone powder assessed as reduction in bound compound level at 50 uM after 1 hr by NMR spectroscopic analysis relative to control
# Set-up: scale not given: the % may be the effect or the level left
Number only, in %; omit the unit.

Before answering, review these 2 worked examples.
| molecule | measured-attribute | value-observed |
| --- | --- | --- |
| Oc1ccc(-c2cc3ccc(O)cc3s2)cc1 [RALOXIFENE CORE] | Activity | 42.8 |
| COc1ccc(Nc2nc(NCc3ccco3)nc(N/N=C(\C)c3ccc(NC(C)=O)cc3)n2)cc1 | Activity | 0.3 |

Turning now to a further record.
Enquiry: Look up and state reported Activity for "O=C(c1ccc(OCCN2CCCCC2)cc1)c1c(-c2ccccc2)sc2ccccc12"
Return: -132
